Measured On: Sialic acid-binding Ig-like lectin 9 (Homo sapiens)
Assay Protocol: Hs-Siglec9 ALPHAscreen SOP 20170721
Design: scale not given: direction of the effect not stated beside the values
Applied Conditions: 10 µM
Endpoint Name: Percent Effect
State the value with its unit after it.

1. Cn1cc(CN2CC[C@H]3C[C@H](c4nc(C5CC5)cs4)O[C@@H]3C2)cn1; 13.1%
2. CCC(=O)N1CCC(c2nnc(Cn3cccn3)n2C2CC2)CC1; 12.6%
3. CN(C)Cc1nnc(C2CCN(c3nccc(N)n3)CC2)n1C1CC1; -0.797%
4. Cc1ccc(C(O)CNCc2c(C(C)C)nn(C)c2N(C)C)cc1 (stereo not drawn); 6.38%
5. CCOc1ccccc1Nc1nc2c(C)nn(C)c2c(=O)n1C; 10.9%

Prompt: Which Percent Effect is listed for O=C(CN1CCOC(Cn2cccn2)C1)NCCc1ccc(F)cc1 (stereo not drawn) ?
Response: -1.28%

Prompt: Which Percent Effect is listed for Cn1cc(N2CC3(CCN(S(=O)(=O)C4CC4)C3)CC2=O)cn1 (stereo not drawn) ?
Response: -0.00481%

Prompt: Which Percent Effect is listed for "C[C@H]1C[C@@H]2CCN(C(=O)c3cccn3C)C[C@H]2O1" ?
Response: -5.58%
